- Tested on: human dermal fibroblasts from CoQ10 deficient patients harboring a CoQ2 mutation
- assay-name: Rescue of fibroblasts from CoQ10 deficient patients from oxidative stress (similar to Example A)
- Format: cell-based
- condition-summary: BSO-stressed, read-out: EC50, protection against CoQ10
metric-name: pEC50
# pEC50: negative log10 of molar concentration; output just the value

Param item = Cc1ccc2c(c1)C1CNCCC1N2 (stereo not shown) ; retrieve measured pEC50.
5.15

----------
- Test system: human dermal fibroblasts from CoQ10 deficient patients harboring a CoQ2 mutation
- assay-name: Rescue of fibroblasts from CoQ10 deficient patients from oxidative stress (similar to Example A)
- Type: cell-based
- condition-summary: Homo sapiens, Fibroblast, BSO-stressed, read-out: EC50, protection against CoQ10
metric-name: pEC50
# pEC50: negative log10 of molar concentration; output just the value

Param item = Cc1ccc2c(c1)c1c(n2CCc2ccc(C)nc2)CCN(C)C1 ; retrieve measured pEC50.
6.64

Param item = CN1CCc2c(c3ccccc3n2Cc2ccccc2)C1 ; retrieve measured pEC50.
5.47

These entries and their values trace back to patent US20100029706A1.
